Where do these numbers come from? They come from patent US20090280138A1.

# binding, % of positive control peptide annotations
Target: T1, MHC class I molecule A*0101 (biotin (bound to streptavidin-coated plate))
T1 construct: iTopia monomer stripped of placeholder peptide and b2M, then reconstituted with test peptide and fresh b2M; also called A1; HLA-A1
Experiment: iTopia peptide binding assay

Observe how each entry below is paired with its result.
PHIRVFLDN [5T4 9-mer peptide 143 (PHIRVFLDN)] : 0 % of positive control
YHYRYEINA [5T4 9-mer peptide 200 (YHYRYEINA)] : 0 % of positive control
VQGKDRLTC [5T4 9-mer peptide 158 (VQGKDRLTC)] : 0 % of positive control
ETEVVQGKD [5T4 9-mer peptide 156 (ETEVVQGKD)] : 0 % of positive control
DRLTCAYPE [5T4 9-mer peptide 160 (DRLTCAYPE)] : 0 % of positive control
PRLTNLSSN [5T4 9-mer peptide 205 (PRLTNLSSN)] : 2 % of positive control
LELNSADLD [5T4 9-mer peptide 168 (LELNSADLD)] : 0 % of positive control
ESLHLEDNA [5T4 9-mer peptide 131 (ESLHLEDNA)] : 2 % of positive control

In: Entry NGTLAELQG [5T4 9-mer peptide 138 (NGTLAELQG)] needs its binding, % of positive control peptide filled in; supply it.
Out: 3 % of positive control

In: Query binding, % of positive control peptide for CAYPEKMRN [5T4 9-mer peptide 162 (CAYPEKMRN)]
Out: 0 % of positive control

In: Identify measured binding, % of positive control peptide associated with LTYVSFRNL [5T4 9-mer peptide 125 (LTYVSFRNL)]
Out: 28 % of positive control
